Format: in vivo, human
Conditions: human, plasma, oral, 1200 mg/day, AUC0-12h, Panel 1 (MT), Dose 1
VALUE TYPE: AUC(0-t) (µM·h)
Answers are plain numbers, in µM·h.

Request: Recorded AUC(0-t) for O=C(O)[C@]1(Cc2cccc(Nc3nccs3)n2)CC[C@@H](Oc2cccc(Cl)c2F)CC1 [MK-5108] , please?
Result: 96.6

* * *

Format: in vivo, human
Conditions: human, plasma, oral, Median Tmax, following the fourth dose, across dose levels
VALUE TYPE: Tmax

Request: Recorded Tmax for "O=C(O)[C@]1(Cc2cccc(Nc3nccs3)n2)CC[C@@H](Oc2cccc(Cl)c2F)CC1" , please?
Result: 1 to 6 h

* * *

Type: in vivo, human
Settings: human, plasma, oral, 1800 mg/day, Cmax, Panel 1 (MT), Dose 4
VALUE TYPE: Cmax

Request: Recorded Cmax for "O=C(O)[C@]1(Cc2cccc(Nc3nccs3)n2)CC[C@@H](Oc2cccc(Cl)c2F)CC1" , please?
Result: 50.2 µM

* * *

Assay type: in vivo, human
Settings: human, plasma, iv, 60 mg/m2, Cmax, 225 mg/day, Panel 2 (CT, docetaxel 60 mg/m^2 IV), Dose 4
VALUE TYPE: Cmax
Respond with the figure and its unit, in that order.

Request: Recorded Cmax for O=C(O)[C@]1(Cc2cccc(Nc3nccs3)n2)CC[C@@H](Oc2cccc(Cl)c2F)CC1 [MK-5108] , please?
Result: 5.3 µM

* * *

Type: in vivo, human
Conditions: human, plasma, oral, 1200 mg/day, C12h, Panel 1 (MT), Dose 4
VALUE TYPE: concentration at 12 h (µM)
Numbers only, in µM.

Request: Recorded concentration at 12 h for "O=C(O)[C@]1(Cc2cccc(Nc3nccs3)n2)CC[C@@H](Oc2cccc(Cl)c2F)CC1" , please?
Result: 3.31
